# System: BL2-NFkB-Luc
# testName: CD40L-induced NF-kB luciferase activity, plate-corrected, relative to DMSO (0) and IKK inhibitor VII (-100) controls (% normalized activity); higher = more NF-kB reporter activity (less inhibition)
# runConditions: 9.4 µM; stimulus: tCD40L 64 ng/ml; 4.5 h
Whole data set: some 1,900 compounds, median “CD40L-induced NF-kB luciferase activity, plate-corrected, relative to DMSO (0) and IKK inhibitor VII (-100) controls” near 0.032, cut for the lowest 2% near -26. This excerpt belongs to a sample that is enriched for the lowest values.
assayReadout: CD40L-induced NF-kB luciferase activity

- CC(C)c1ccc(OCc2ccc(C(=O)O)o2)cc1: -32.6
- C=C1C2(C(=O)Nc3ccc(SC(F)F)cc3)CCC(C2)C1(C)C (centres undefined): 1.47
- COCCn1c(/C=C/c2ccccc2)nc2ccccc21: 38.4
- O=C(NC1CCCCC1)c1cc2nc(-c3ccco3)cc(C(F)(F)F)n2n1: 1.55
- Cc1ccc(C(CC(=O)NCc2ccco2)c2ccc(OC(C)C)cc2)cc1 (centres undefined): -5.4
- Cc1ccccc1-c1coc2cc(O)ccc2c1=O: 4.65
- O=C(c1cccc2ccccc12)C1CCCN(C(=O)CCN2CCCO2)C1 (centres undefined): 2.54
- CCOc1ccc(C(=O)N2CCCC2C(=O)O)cc1 (centres undefined): 2.22
- Cc1ccc2c(c1)c(=O)c1c3n2CCN(C(=O)CCl)C3CC1 (centres undefined): -2.91
- O=C1[C@@H]2CSCN2C(=O)CN1Cc1ccc(F)cc1: -0.473
- COc1ccc(OCc2cccc(C(=O)NN)c2)cc1: -59.1
- COc1cc(OC)cc(C(C)=O)c1: -2.98
- O=C(O)[C@@H](O)c1ccccc1: -1.47
- COc1ccc(S(N)(=O)=O)cc1C(N)=O: -2.45
- COc1ccc(C2=CC(=O)C=CC2=O)cc1: -5.93
- O=C(NCCC(c1ccccc1)c1ccco1)c1cccs1 (centres undefined): 24.9
- CCCCC[C@H](O)/C=C/[C@@H]1[C@@H](C/C=C\CCCC(=O)OC)[C@@H](O)C[C@H]1O: -2.47
- COc1ccc(/C=C/C(=O)Nc2ccccc2C(=O)O)cc1OC: -57.1
- CCn1c(/C=C/c2ccccc2)nc2ccccc2c1=O: 4.25
- COC(=O)CSc1nc2ccc(N)cc2s1: 0.507
- O=C1OC(c2ccc(O)cc2)(c2ccc(O)cc2)c2ccccc21: 0.943
- CC(C)[C@H]1CN(C)CCN1Cc1cn(C)nc1-c1cccc(Cl)c1: 2.03
- CCOc1ccc(C(NC(C)=O)c2ccc(OC)c(OC)c2)cc1 (centres undefined): 4.36
- O=C(c1ccc(F)cc1)[C@@H]1[C@@H](C(=O)c2ccccc2)[C@@]2(C(=O)Nc3ccccc32)[C@H]2c3ccccc3C=CN12: 6.58
- COc1ccc(NC(=O)Nc2ccc(C(C)C)cc2)cc1: 13.4
- COc1ccc(NC(=S)N2CCN(CCN3C(=O)c4cccc5cccc(c45)C3=O)CC2)cc1: 1.19
- COc1cc2c(cc1OC)C1(CCCCC1)CN(C)C2: -4.22
- COc1ccc2c3c([nH]c2c1)C1(NCC3)C(=O)Nc2ccccc21 (centres undefined): 5.33
- COc1ccc2c(c1)[nH]c1c(=O)n(Cc3ccccn3)cnc12: -0.0285
- O=C(OCCN1CCOCC1)c1cccs1: -4.77
- CC(C(=O)O)c1ccc(-c2ccccc2)c(F)c1 (centres undefined): 2.04
- COC(=O)CCC(=O)CN: -0.0616
- O=C(/C=C/c1ccco1)Nc1ccccc1C(=O)O: 1.64
- COc1ccc(/C=C\C(=O)c2c(O)ccc3c(C)cc(=O)oc23)cc1OC: -14
- COCC(C)NC(=O)c1ccc(CN2CCc3ccccc3C2)cc1 (centres undefined): 7.18
- CC(=O)OC1c2c(ccc3ccc(=O)oc23)OC(C)(C)C1OC(=O)CC(C)C (centres undefined): -3.56
- c1ccc2c(c1)CCOC2CNCCCN1CCCCC1 (centres undefined): -0.411
- CC(C)Cc1ccc(C(C)C(=O)O)cc1 (centres undefined): 2.3
- O=C1C(O)CC2c3ccccc3CC3(CCCC3)N12 (centres undefined): 2.45
- COc1cc(CNCCc2c[nH]c3ccccc23)cc(Cl)c1OCC(N)=O: -2.87
- CC(=O)C1=C(O)C(=O)N(CC(=O)O)C1c1ccccc1Cl (centres undefined): 3.2
- COc1ccc(C(=O)NCc2cccnc2)cc1: -2.51
- COc1ccccc1N1C(=O)C2CC(C)=C(C)CC2C1=O (centres undefined): -4.81
- CCN(CC)C1=C(Cl)C(=O)C(Cl)C12OCCO2 (centres undefined): -4.69
- O=C(Cc1ccc(Br)cc1)c1ccc(O)cc1O: 32.9
- CC(C)CC(=O)OC1C(N2CCOCC2)c2c(ccc(/C=C/C(=O)N3CCOCC3)c2O)OC1(C)C (centres undefined): -1.24
- COc1cccc(CN2CCN(C(=O)c3ccc(-c4ccccc4)cc3)CC2)c1: -7.33
- CCOC(=O)c1cccc(C(=O)OCC)n1: -2.95
- O=C(O)CCSc1nc2ccccc2s1: -42.3
